- study-target: T1, human Insulin Receptor A (hIR-A) (human, UniProt P06213-2 28-1370)
- T1 construct: Solubilised semi-purified receptor captured on SPA beads by antibody 83-7
- protocol-notes: SPA competition vs 125I-insulin, hIR-A, 1.5% HSA, no glucose
measurement-type: HIR affinity relative HI (%), 1.5% HSA

binder	HIR affinity relative HI (%), 1.5% HSA
Compound of Example 155 (ligand, not fully specified; diboron group from building block of example 19; sites only in drawing) chain 1: GIVEQCCTSICSLEQLENYCNK chain 2: FVNQHLCGSHLVEALYLVCGERGFHYPK	5.3
Compound of Example 141 (ligand, diboron group from building block of example 2; sites only in drawing) chain 1: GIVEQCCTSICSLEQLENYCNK chain 2: FVNQHLCGSHLVEALYLVCGERGFHYPK	8.6
Compound of Example 152 (ligand, not fully specified; diboron group from building block of example 15; sites only in drawing) chain 1: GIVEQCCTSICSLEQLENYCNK chain 2: FVNQHLCGSHLVEALYLVCGERGFHYPGK	4.9
Compound of Example 166 (ligand, not fully specified; diboron group from building block of example 20; sites only in drawing) chain 1: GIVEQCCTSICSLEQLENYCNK chain 2: FVNQHLCGSHLVEALYLVCGERGFHYPK	2.2
Compound of Example 139 (ligand, diboron group from building block of example 9; sites only in drawing) chain 1: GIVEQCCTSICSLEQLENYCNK chain 2: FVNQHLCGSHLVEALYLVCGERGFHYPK	4

[I] Compound of Example 154 (ligand, not fully specified; diboron group from building block of example 19; sites only in drawing) chain 1: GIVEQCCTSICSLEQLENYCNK chain 2: FVNQHLCGSHLVEALYLVCGERGFHYPGK
[II] Compound of Example 158 (ligand, not fully specified; diboron group from building block of example 16; sites only in drawing) chain 1: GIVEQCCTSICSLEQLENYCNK chain 2: FVNQHLCGSHLVEALYLVCGERGFHYPGK
[III] Compound of Example 146 (ligand, not fully specified; diboron group from building block of example 16; sites only in drawing) chain 1: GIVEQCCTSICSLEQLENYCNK chain 2: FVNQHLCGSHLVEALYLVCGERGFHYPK
[IV] Compound of Example 150 (ligand, not fully specified; diboron group from building block of example 18; sites only in drawing) chain 1: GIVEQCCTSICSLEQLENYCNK chain 2: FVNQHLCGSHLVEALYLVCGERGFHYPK
Ordering: ascending HIR affinity relative HI (%), 1.5% HSA. Provide your answer as the labels ordered per the instruction.
II, III, I, IV
